# study system: FPR2 (human blood neutrophils) (Homo sapiens, UniProt P25090)
# Sequence (P25090 1-351): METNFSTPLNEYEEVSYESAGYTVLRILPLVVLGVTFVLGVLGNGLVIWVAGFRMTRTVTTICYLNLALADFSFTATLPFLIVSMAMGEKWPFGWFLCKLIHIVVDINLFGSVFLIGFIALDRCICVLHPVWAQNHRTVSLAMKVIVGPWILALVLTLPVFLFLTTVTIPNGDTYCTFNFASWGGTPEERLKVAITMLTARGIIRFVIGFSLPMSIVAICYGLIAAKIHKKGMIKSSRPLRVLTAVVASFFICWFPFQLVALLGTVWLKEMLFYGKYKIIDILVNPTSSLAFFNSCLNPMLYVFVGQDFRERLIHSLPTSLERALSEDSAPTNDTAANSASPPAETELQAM
# method: NADPH-oxidase superoxide release, isoluminol chemiluminescence, peak response
# condition summary: agonist; naive neutrophils, 37 °C, pH 7.3
measure: EC50

// query Returns the measured EC50 for the input molecule. Input: Cc1cccc(-c2oc(C)nc2C(=O)Nc2cnn(Cc3nc(C(C)(F)F)co3)n2)c1
// result ~10 nM

* * *

# study system: FPR2 (PathHunter eXpress CHO-K1 FPR2 cells) (Homo sapiens, UniProt P25090)
# method: beta-arrestin recruitment, PathHunter enzyme fragment complementation
measure: EC50

// query Fill blank: measured EC50 of the compound Cc1cccc(-c2oc(C)nc2C(=O)Nc2cnn(Cc3nc(C(C)(F)F)co3)n2)c1 is ____.
// result ~20 nM
